Target of assay: cynomolgus monkey (cyno) TIGIT protein (cynomolgus monkey, UniProt A0A7N9I9V4 89-209)
Sequence (A0A7N9I9V4 entry or part of it): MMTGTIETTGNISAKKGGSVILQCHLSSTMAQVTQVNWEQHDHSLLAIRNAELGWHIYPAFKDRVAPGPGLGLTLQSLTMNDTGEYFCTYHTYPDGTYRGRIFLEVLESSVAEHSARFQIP
Protocol: SPR, captured mAb
Readout type: kon (M⁻¹ s⁻¹)
Numbers only, in M⁻¹ s⁻¹.

Example cases with answers are listed next.
- Binder: "h7E7.L1H6 (antibody, V domains shown, VH: A71R against h7E7.L1H1; FR/HVR pieces) VH: EVQLVQSGAEVKKPGASVKVSCKASGYTFTEYSIYWVRQAPGQRLEIIGRIDPKNGRTYYVDKFKNRATLTRDTSASTAYMELSSLRSEDTAVYFCTRIYGFYFDFWGQGTLVTVSS VL: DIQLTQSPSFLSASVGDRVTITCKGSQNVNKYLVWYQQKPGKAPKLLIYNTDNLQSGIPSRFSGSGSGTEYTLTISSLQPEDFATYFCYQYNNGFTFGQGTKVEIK"
  Endpoint value: 641000
- Binder: "h7E7.L5H1 (antibody, V domains shown, VL: I58V, Y71F, F87Y against h7E7.L1H1; FR/HVR pieces) VH: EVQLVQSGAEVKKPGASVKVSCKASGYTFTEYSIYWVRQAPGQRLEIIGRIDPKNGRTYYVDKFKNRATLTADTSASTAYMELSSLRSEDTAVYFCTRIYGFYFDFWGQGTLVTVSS VL: DIQLTQSPSFLSASVGDRVTITCKGSQNVNKYLVWYQQKPGKAPKLLIYNTDNLQSGVPSRFSGSGSGTEFTLTISSLQPEDFATYYCYQYNNGFTFGQGTKVEIK"
  Endpoint value: 575000
- Binder: "h15C8.L1H5 (antibody, V domains shown, VH: A67V against h15C8.L1H1; FR/HVR pieces) VH: EVQLVQSGAEVKKPGASVKVSCKASGYTFTEHSIYWLRQAPGQRLEIIGRIDPKNGRTYFVDKFKNRVTLTTDTSASTAYMELSSLRSEDTAVYFCARIDGFYFDFWGQGTLVTVSS VL: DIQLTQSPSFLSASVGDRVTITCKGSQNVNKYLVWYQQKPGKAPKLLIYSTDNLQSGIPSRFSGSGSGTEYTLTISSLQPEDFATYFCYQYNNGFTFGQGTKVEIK"
  Endpoint value: 484000
- Binder: "rat15C8 (antibody, V domains shown, SD rat-derived; rat V domains as FR/HVR pieces; also called 1.15C8; Chimeric 1.15C8) VH: EVQLQQSGPELQRPGASVKLSCKASGYTFTEHSIYWLKQRPKQSLEIIGRIDPKNGRTYFVDKFKNRATLTTNTSSNTAYMQLSSLTSEDTAIYFCARIDGFYFDFWGQGVMVTASS VL: NIHLTQSPSLLSASVGDRVTLSCKGSQNVNKYLVWYQQKLGEAPKLLIYSTDNLQSGIPSRFSGSGSGTDYTLTISSLQPEDAATYFCYQYNNGFTFGSGTKLEIK"
  Endpoint value: 381000

Consider the following items and state reported kon for each.
1. rat7E7 (antibody, V domains shown, SD rat-derived; rat V domains as FR/HVR pieces; also called 1.7E7; Chimeric 1.7E7) VH: EVQLQQSGPELQRPGASVKLSCKATGYTFTEYSIYWVKQRPKQSLEIIGRIDPKNGRTYYVDKFKNRATLTADTSSNTAYMQLSSLTSEDTATYFCTRIYGFYFDFWGQGVMVTASS VL: NIHLTQSPSLLSASVGDRVTLSCKGSQNVNKYLVWYQQKLGEAPKLLIYNTDNLQSGIPSRFSGSGSGTDYTLTISSLQPEDAATYFCYQYNNGFTFGSGTKLEIK
2. h7E7.L4H1 (antibody, V domains shown, VL: F87Y against h7E7.L1H1; FR/HVR pieces) VH: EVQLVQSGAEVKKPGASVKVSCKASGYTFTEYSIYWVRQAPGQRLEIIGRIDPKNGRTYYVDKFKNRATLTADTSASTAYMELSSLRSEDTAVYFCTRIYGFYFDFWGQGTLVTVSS VL: DIQLTQSPSFLSASVGDRVTITCKGSQNVNKYLVWYQQKPGKAPKLLIYNTDNLQSGIPSRFSGSGSGTEYTLTISSLQPEDFATYYCYQYNNGFTFGQGTKVEIK
3. h15C8.L5H1 (antibody, V domains shown, VL: I58V, Y71F, F87Y against h15C8.L1H1; FR/HVR pieces) VH: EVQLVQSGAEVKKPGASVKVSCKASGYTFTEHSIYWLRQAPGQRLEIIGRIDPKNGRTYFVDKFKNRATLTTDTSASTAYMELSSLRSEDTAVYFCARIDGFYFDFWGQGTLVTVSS VL: DIQLTQSPSFLSASVGDRVTITCKGSQNVNKYLVWYQQKPGKAPKLLIYSTDNLQSGVPSRFSGSGSGTEFTLTISSLQPEDFATYYCYQYNNGFTFGQGTKVEIK
4. h15C8.L1H1 (antibody, V domains shown, First humanized version; FR/HVR pieces in order; also called h1.15C8.L1H1) VH: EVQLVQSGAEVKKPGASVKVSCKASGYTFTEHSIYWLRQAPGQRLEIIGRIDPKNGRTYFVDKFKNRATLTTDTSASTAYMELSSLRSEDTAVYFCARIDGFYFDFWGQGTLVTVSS VL: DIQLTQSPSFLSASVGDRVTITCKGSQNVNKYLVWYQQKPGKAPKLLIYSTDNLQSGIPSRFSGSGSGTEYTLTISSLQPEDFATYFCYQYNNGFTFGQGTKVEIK

Result:
1. 399000
2. 629000
3. 281000
4. 493000
